B1: ATGL (PNPLA2, patatin-like phospholipase domain-containing protein 2), human, full length / perilipin-5, mouse (mPlin5) (parent)
chain 1: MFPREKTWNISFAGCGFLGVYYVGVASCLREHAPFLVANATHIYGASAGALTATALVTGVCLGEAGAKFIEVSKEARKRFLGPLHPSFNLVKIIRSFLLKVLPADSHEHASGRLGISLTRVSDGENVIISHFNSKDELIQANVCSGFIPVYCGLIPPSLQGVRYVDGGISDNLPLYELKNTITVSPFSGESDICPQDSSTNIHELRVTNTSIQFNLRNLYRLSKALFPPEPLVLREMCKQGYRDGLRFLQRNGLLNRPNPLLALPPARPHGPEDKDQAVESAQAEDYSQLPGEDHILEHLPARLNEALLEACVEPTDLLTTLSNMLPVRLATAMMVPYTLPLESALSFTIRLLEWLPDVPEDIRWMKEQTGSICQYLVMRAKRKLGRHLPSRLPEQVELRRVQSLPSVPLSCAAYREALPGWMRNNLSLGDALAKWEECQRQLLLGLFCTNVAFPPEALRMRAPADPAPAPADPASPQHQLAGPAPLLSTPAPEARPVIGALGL
chain 2: MDQRGEDTTLAPHSRMSGDQTAQDPGSSLGELDQQNVVNRVVALPLVKATCTAVSSAYNSAKDRHPLLGSACRLAEHCVCSVTTCALDHAQPLLEHLQPQLATVNDLACRGLDKLEEKLPFLQQPSDMVVTSAKDTVAKSVTGMVDLAQRGRRWSGELRRSMSQAMDMVLGKSEKLVDRFLPMTEAELAVLAAEAEGPEVGTVEEQRQQQGYFVRLGSLSARLRHLAYEHSLGKLRQSKHRTQEMLAQLQETLELIQHMQRGASPSPTFHPPKTQELWGSWSPCLENGRSHSEVELETLALSRSLTLELQNAVDALAGCVRGLPPSAQAKVAEVQRSVDALQATFADAHCLGDVAPTALAEGRGSVARAHACVDEFLDLVLRAMPLPWLVGPFAPILVEQSEPLINLATCVDEVVGDPDPRWAHMDWPAQKRAWEAESADPGGQEAEPPRGQGKHTMMPELDF

Variants of: B1
Assay: LUMIER: Protein A-ATGL variant and firefly luciferase-partner co-expressed in HEK293T, lysates immunoprecipitated on IgG-coated plates, co-precipitated partner measured as luciferase luminescence
Details: with perilipin-5, mouse (mPlin5), transient co-transfection, IgG-coated LUMITRAC plates, 2 h at 4 °C, three PBS washes, Bright-Glo luciferase reagent, triplicates per assay, two …, parent: 0.15, not graded, scale: log2 fold change of co-immunoprecipitated luminescence relative to wild-type ATGL within each experiment
Each entry falls in a class defined on screen value; the bands are class 0 = under -0.3, class 1 = from -0.3 up to -0.06, class 2 = -0.06 and over

>  <mutant.name>
chain 1 Y415A

>  <assigned.class>
class 2

$$$$
>  <mutant.name>
chain 1 S158A

>  <assigned.class>
class 2

$$$$
>  <mutant.name>
chain 1 Q140A

>  <assigned.class>
class 1

$$$$
>  <mutant.name>
chain 1 P86K

>  <assigned.class>
class 0

$$$$
>  <mutant.name>
chain 1 G153K

>  <assigned.class>
class 0

$$$$
>  <mutant.name>
chain 1 S106K

>  <assigned.class>
class 0

$$$$
>  <mutant.name>
chain 1 A104E

>  <assigned.class>
class 1

$$$$
>  <mutant.name>
chain 1 N180L

>  <assigned.class>
class 0

$$$$
>  <mutant.name>
chain 1 G16K

>  <assigned.class>
class 2

$$$$
>  <mutant.name>
chain 1 R329E

>  <assigned.class>
class 2

$$$$
>  <mutant.name>
chain 1 K275A

>  <assigned.class>
class 1

$$$$
>  <mutant.name>
chain 1 S87A

>  <assigned.class>
class 1

$$$$
